# target desc: T1, SH2 domain of Crkl protein (residues 1-111), H91A variant (UniProt P46109 1-111, H91A)
# T1 construct: Crkl adaptor protein, SH2 domain, residues 1-111, His91 replaced by alanine; Site-directed mutant of m1 (QuikChange); source: E. coli BL21 (DE3), purified (HisTrap nickel column, desalting); not shown: His tag, N-terminal, kept
# T1 sequence (P46109 1-111 H91A): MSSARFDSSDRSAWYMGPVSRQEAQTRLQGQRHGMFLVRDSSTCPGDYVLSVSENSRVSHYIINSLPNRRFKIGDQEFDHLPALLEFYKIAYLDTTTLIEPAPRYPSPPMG
# assay details: stopped-flow fluorescence kinetics (FRET); dansyl-Pax112-123 constant at 2 μM mixed with Crkl-SH2 2 to 10 μM (pseudo-first-order, kon); koff by displacement of the preincubated 2 µM complex with excess non-dansylated Pax112-123 (30 μM); 283 K; 50 mM TrisHCl pH 8.5, 0.5 M NaCl
# condition set: both partners purified
Square brackets hold non-standard residues; d marks the D form. Ends that are not written are not given here. * marks the point of attachment. pY = N[C@@H](Cc1ccc(OP(=O)(O)O)cc1)C(=O)O; Dansyl = CN(C)c1cccc2c(S(=O)(=O)*)cccc12
value kind: Kd (nM)
# unit: nM | format: bare number

Exam item: Look up and report measured Kd for this entry: Dansyl-GEEEHV[pY]SFPNK (The dansyl group is the FRET acceptor of Trp14 of the SH2 domain; source: synthetic peptide, bought: GenScript) [dansylated Pax_(112–123) peptide (Dans-GEEEHV-pY-SFPNK)]
Marked response: 2600
